What viability, T/C was measured for each of the following?
Tested on: 217524-143-R1-J4-PDC spheroids with HUVEC/MSC, viability
TEST SUMMARY: Anticancer human tumor 217524-143-R1-J4-PDC patient-derived pancreatic carcinoma cell line growth inhibition [CLK]
APPLIED CONDITIONS: second compound 0.0316 µM; first compound 0.316 µM; hits give low values
Numbers only, in %.

Sample records with viability, T/C:
# query: viability, T/C of entry CCCS(=O)(=O)Nc1ccc(F)c(C(=O)c2c[nH]c3ncc(-c4ccc(Cl)cc4)cc23)c1F + CN1CCN(c2cc(C(=O)Nc3cc4cc(-c5cnn(C)c5)ccc4cn3)ccn2)CC1
107

# query: viability, T/C of entry CCN1CCN(Cc2ccc(Nc3ncc(F)c(-c4cc(F)c5nc(C)n(C(C)C)c5c4)n3)nc2)CC1 + CN1CCN(c2cc(C(=O)Nc3cc4cc(-c5cnn(C)c5)ccc4cn3)ccn2)CC1
41

# query: viability, T/C of entry CC1(C)CCC(CN2CCN(c3ccc(C(=O)NS(=O)(=O)c4ccc(NCC5CCOCC5)c([N+](=O)[O-])c4)c(Oc4cnc5[nH]ccc5c4)c3)CC2)=C(c2ccc(Cl)cc2)C1 + CN1CCN(c2cc(C(=O)Nc3cc4cc(-c5cnn(C)c5)ccc4cn3)ccn2)CC1
89.4

For every item below, please supply its viability, T/C.
1. Nc1ccccc1NC(=O)c1ccc(CNC(=O)OCc2cccnc2)cc1 + CNC(=O)c1ccc(Nc2nc(OC3CCCC3)c3c(-c4ccc5nc(C)oc5c4)c[nH]c3n2)c(OC)c1
2. CCCS(=O)(=O)Nc1ccc(F)c(C(=O)c2c[nH]c3ncc(-c4ccc(Cl)cc4)cc23)c1F + CNC(=O)c1ccc(Nc2nc(OC3CCCC3)c3c(-c4ccc5nc(C)oc5c4)c[nH]c3n2)c(OC)c1
3. CCc1c2c(nc3ccc(O)cc13)-c1cc3c(c(=O)n1C2)COC(=O)[C@]3(O)CC + CN1CCN(c2cc(C(=O)Nc3cc4cc(-c5cnn(C)c5)ccc4cn3)ccn2)CC1
4. COc1c(OCCCN2CCOCC2)ccc2c3n(c(=NC(=O)c4cnc(N)nc4)nc12)CCN3 + CNC(=O)c1ccc(Nc2nc(OC3CCCC3)c3c(-c4ccc5nc(C)oc5c4)c[nH]c3n2)c(OC)c1
5. CC1COCCN1c1cc(C2(S(C)(=N)=O)CC2)nc(-c2ccnc3[nH]ccc23)n1 (stereo not given) + CNC(=O)c1ccc(Nc2nc(OC3CCCC3)c3c(-c4ccc5nc(C)oc5c4)c[nH]c3n2)c(OC)c1
6. C=CC(=O)N1CCN(c2nc(=O)n(-c3c(C)ccnc3C(C)C)c3nc(-c4c(O)cccc4F)c(F)cc23)C(C)C1 (stereo not given) + CN1CCN(c2cc(C(=O)Nc3cc4cc(-c5cnn(C)c5)ccc4cn3)ccn2)CC1

1. 97.3
2. 99.1
3. 17.5
4. 2.9
5. 71.4
6. 67.1

# query: viability, T/C of entry Nc1ccccc1NC(=O)c1ccc(CNC(=O)OCc2cccnc2)cc1 + CN1CCN(c2cc(C(=O)Nc3cc4cc(-c5cnn(C)c5)ccc4cn3)ccn2)CC1
80.2

* * *

Tested on: 217524-143-R1-J4-PDC spheroids with HUVEC/MSC, viability
TEST SUMMARY: Anticancer human tumor 217524-143-R1-J4-PDC cell line growth inhibition [CLK]; active means viability on the fitted dose curve at most 10% of control; inactive means the rest;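 note: spheroids exposed to agents for seven days before reading; 100% = DMSO vehicle control viability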
APPLIED CONDITIONS: second compound 3.16 µM; first compound 1 µM
The reply should name one outcome from T for active, F for inactive

Some solved entries appear below for comparison.
Can you look up the reported call for COC1C=CCC(C)C(C)S(=O)(=O)NC(=O)c2ccc3c(c2)N(CC2CCC21)CC1(CCCc2cc(Cl)ccc21)CO3 (stereo not given) + CNC(=O)c1ccc(Nc2nc(OC3CCCC3)c3c(-c4ccc5nc(C)oc5c4)c[nH]c3n2)c(OC)c1 for me?
F

Can you look up the reported call for COc1cccc2c1C(=O)c1c(O)c3c(c(O)c1C2=O)CC(O)(C(=O)CO)CC3OC1CC(N)C(O)C(C)O1 (stereo not given) + CN1CCN(c2cc(C(=O)Nc3cc4cc(-c5cnn(C)c5)ccc4cn3)ccn2)CC1 for me?
T

Can you look up the reported call for COc1ccc([C@@H](O)c2cc(-c3ncnc4cc(N5CCOCC5)ccc34)c(F)cc2Cl)nn1 + CNC(=O)c1ccc(Nc2nc(OC3CCCC3)c3c(-c4ccc5nc(C)oc5c4)c[nH]c3n2)c(OC)c1 for me?
F

Can you look up the reported call for Nc1ccccc1NC(=O)c1ccc(CNC(=O)OCc2cccnc2)cc1 + CN1CCN(c2cc(C(=O)Nc3cc4cc(-c5cnn(C)c5)ccc4cn3)ccn2)CC1 for me?
T

Note: attention shifts to another entry.
Can you look up the reported call for CC(Nc1ccc2c(c1)OCCn1cc(N3C(=O)OCC3C(F)F)nc1-2)C(N)=O (stereo not given) + CN1CCN(c2cc(C(=O)Nc3cc4cc(-c5cnn(C)c5)ccc4cn3)ccn2)CC1 for me?
T
